B1: glmS ribozyme (parent)
chain: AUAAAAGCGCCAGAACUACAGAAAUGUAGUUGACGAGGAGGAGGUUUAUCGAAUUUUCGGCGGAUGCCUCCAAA

- Variants of: B1
- assay-method-text: self-cleavage kobs at 40 uM GlcN6P; higher = faster cleavage; RNA array
- assay-context: with glucosamine-6-phosphate
Variants at the floor of the assay were thinned out.
metric: self-cleavage kobs at 40 uM GlcN6P

Use the examples below as a reference point.
mut	reported-result
C10G A36G	< 1e-05 s⁻¹
U45G U57C	< 1e-05 s⁻¹
A6G U56A U65C	< 1e-05 s⁻¹
G32U C68U	< 1e-05 s⁻¹

Give self-cleavage kobs at 40 uM GlcN6P for each listed item.
1. G51A C61G
2. C10U G29A U47G
3. A6G C8U U54G C68G
4. G37A G51A
5. C34A A42G
6. C8U G32C

1: < 1e-05 s⁻¹; 2: < 1e-05 s⁻¹; 3: 0.000149 s⁻¹; 4: < 1e-05 s⁻¹; 5: < 1e-05 s⁻¹; 6: < 1e-05 s⁻¹
